- Assay System: OX1 (Homo sapiens, UniProt O43613)
- Construct: expressed in transfected cells; host or cells: CHO (CHO-OX1, kept under selection antibiotic)
- Sequence (O43613 whole entry): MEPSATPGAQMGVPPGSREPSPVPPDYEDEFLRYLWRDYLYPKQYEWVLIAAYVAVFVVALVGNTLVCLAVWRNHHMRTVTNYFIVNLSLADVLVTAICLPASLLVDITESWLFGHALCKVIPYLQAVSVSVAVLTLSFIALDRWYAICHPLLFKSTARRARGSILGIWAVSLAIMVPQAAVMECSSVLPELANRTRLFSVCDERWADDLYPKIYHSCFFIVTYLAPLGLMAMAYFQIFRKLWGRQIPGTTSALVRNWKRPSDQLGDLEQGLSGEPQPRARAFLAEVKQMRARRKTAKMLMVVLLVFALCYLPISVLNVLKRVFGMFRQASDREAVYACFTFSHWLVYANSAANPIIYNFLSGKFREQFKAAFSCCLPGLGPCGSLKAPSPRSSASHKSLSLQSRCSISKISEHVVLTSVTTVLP
- Measurement Notes: Orexin receptor cell-based functional assay, [Ca2+]i by FLIPR, CHO-OX1 cells
- Recorded Conditions: Table 2; CHO-OX1 cells, EC90 of OXA; read-out: IC50 Bioactivity OX1
Value Kind: pIC50
Give bare numbers, as −log10 of the molar value.

Examples from the recorded data:
- Molecule: "Cc1nc(-c2ccccc2)c(C(=O)N2CCC(F)(F)[C@H]2CNC(=O)c2cccc3cccnc23)s1"
  Assay Result: 7.92
- Molecule: "CO[C@@H]1CCCN(C(=O)c2nc(C)sc2-c2ccc(F)cc2)[C@@H]1CNc1ccc(C(F)(F)F)cn1 (racemic)"
  Assay Result: 6.25
- Molecule: "C[C@@H]1CCCN(C(=O)c2ccccc2Oc2ccccc2)[C@@H]1CNc1ccc(C(F)(F)F)cn1 (racemic)"
  Assay Result: 6.58

In the following, a different molecule is considered.
Enquiry: Fill in reported pIC50 for this entry: Cc1nc(C(=O)N2CC3CCCCC3C2CNC(=O)c2cccc3occc23)c(-c2ccccc2)s1 (single isomer, unassigned) [Example 71]
Return: 7.40

###

Please go through the items and note down their inhibition at 10 µM.
- Assay System: CYP3A4 (Homo sapiens, UniProt P08684)
- Construct: pre-incubated with human liver microsomes and NADPH; from tissue; host or cells: human liver microsomes
- Sequence (P08684 whole entry): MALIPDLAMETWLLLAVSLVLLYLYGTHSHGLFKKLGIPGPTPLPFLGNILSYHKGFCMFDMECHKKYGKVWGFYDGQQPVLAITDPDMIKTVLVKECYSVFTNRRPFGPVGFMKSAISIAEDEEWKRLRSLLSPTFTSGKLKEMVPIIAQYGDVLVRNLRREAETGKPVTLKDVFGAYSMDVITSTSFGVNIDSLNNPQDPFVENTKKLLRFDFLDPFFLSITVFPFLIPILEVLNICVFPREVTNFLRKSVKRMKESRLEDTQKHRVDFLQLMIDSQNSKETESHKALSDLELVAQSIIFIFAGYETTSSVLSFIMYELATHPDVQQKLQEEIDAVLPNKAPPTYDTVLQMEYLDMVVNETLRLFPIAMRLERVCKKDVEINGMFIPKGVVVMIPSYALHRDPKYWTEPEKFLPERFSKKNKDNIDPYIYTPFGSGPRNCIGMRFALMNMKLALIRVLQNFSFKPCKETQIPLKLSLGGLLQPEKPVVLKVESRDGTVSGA
- Measurement Notes: Cytochrome P450 inhibition assay (midazolam hydroxylation)
- Assay type: in vitro ADME
- Recorded Conditions: human, human liver microsomes, probe midazolam (hydroxylation to 1′-hydroxymidazolam), 10 μM test compound, midazolam at approximately its Km
Numbers only, in %.

# annotated cases, reported inhibition at 10 µM shown
- Given Smiles: "Cc1ccc(-n2nccn2)c(C(=O)N2CCC[C@@H](C)[C@H]2CNc2nc3cc(Cl)ccc3o2)n1"
  Result Units: "%"
  Assay Result: 57
- Given Smiles: "Cc1ccc(-c2cnn(C)c2)c(C(=O)N2CCC[C@@H](C)[C@H]2CNc2ncc(C(F)(F)F)cc2F)c1"
  Result Units: "%"
  Assay Result: 97
- Given Smiles: "Cc1ccc(-n2cccn2)c(C(=O)N2CCC[C@@H](C)[C@H]2CNc2ccc(C(F)(F)F)nn2)n1"
  Result Units: "%"
  Assay Result: 37

Enquiry: Fill in reported inhibition at 10 µM for this entry: Cc1ccc(-c2ccccn2)c(C(=O)N2CCC[C@@H](C)[C@H]2CNc2ccc(C#N)cn2)c1
Return: 69

###

Exercise: for every item that follows, state its recorded pIC50.
- Assay System: OX1 (Homo sapiens)
- Construct: expressed in transfected cells; host or cells: CHO (CHO-OX1, kept under selection antibiotic)
- Measurement Notes: Orexin receptor cell-based functional assay, [Ca2+]i by FLIPR, CHO-OX1 cells
- Recorded Conditions: Table 2; CHO-OX1 cells, EC90 of OXA; read-out: IC50 Bioactivity OX1
Answers are plain numbers, as −log10 of the molar value.

Use these answered entries as a reference point.
- Molecule: "Cc1nc(C(=O)N2CC3CCCCC3C2CNC(=O)c2cccc3occc23)c(-c2ccccc2)s1 (single isomer, unassigned) [Example 70]"
  pIC50: 6.77
- Molecule: "O=C(NCC1CCC(NCc2ccccc2)CN1C(=O)c1ccccc1-c1ccccc1)c1cccc2cccnc12 (racemic)"
  pIC50: 6.22
- Molecule: "Cc1ccc(-n2cncn2)c(C(=O)N2CCC[C@@H](C)[C@H]2CNc2ccc(C(F)(F)F)cn2)c1 (racemic)"
  pIC50: 7.42
- Molecule: "Cc1nc(C(=O)N2CCC[C@@H](C)[C@H]2CNc2ccc(Cl)cn2)c(-c2ccc(F)cc2)s1 (racemic)"
  pIC50: 7.80

Batch request: pIC50 per item, same order as input.
1. NC1CCC(CNC(=O)c2cccc3cccnc23)N(C(=O)c2ccccc2-c2ccccc2)C1 (racemic)
2. Cc1nc(-c2ccccc2)c(C(=O)N2CC(F)CCC2CNC(=O)c2cccc3cccnc23)s1 (racemic)
3. COc1c(F)cccc1C(=O)NCC1CCCC(C)N1C(=O)c1nc(C)sc1-c1ccc(F)cc1 (racemic)

Return:
7.52
8.70
9.00
